# System: PPARg DBDmut:RXRa IVT, anti-PPARg (DBD mutation: PPARg1 K132A/R137A, NR concentration 270 nM, RXRa partner concentration 90 nM)
# Assay notes: PBM binding z-score (relative to random genomic background probes); higher = stronger binding; sequences stand for … in GC…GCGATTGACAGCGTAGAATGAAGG
Metric: PBM binding z-score
Number only, no unit.

Exam item: Specify measured PBM binding z-score for ATCTCTAGGTAAGACGCAGTTCAGTGAAGAACGC .
Marked response: -0.276

Exam item: Specify measured PBM binding z-score for CGTCCAAGGTCATAGGATGTCAGTGAAGACAGAT .
Marked response: 1.13

Exam item: Specify measured PBM binding z-score for AATCAAAGTTCACTAGGTAACGTAAGATTCAGCT .
Marked response: 1.22

Exam item: Specify measured PBM binding z-score for TGTCAAAGTTCAAAGGTAACGCAAGTATCCACAC .
Marked response: 0.987

Exam item: Specify measured PBM binding z-score for ATCTCTAGGTACGACTCAGTTCAGTGAAGAACGC .
Marked response: 0.443

Exam item: Specify measured PBM binding z-score for TCTTGTAGATCAAGCAGGTTAAGAATGCCTGAGT .
Marked response: -0.142

Exam item: Specify measured PBM binding z-score for ACTGTTAGTTGAGACGAGGGCAACCGATAGGTTG .
Marked response: 0.909

Exam item: Specify measured PBM binding z-score for CCTTCCGGGTCACGAGGTTATAGCACGACGAGCG .
Marked response: 0.639

Exam item: Specify measured PBM binding z-score for GTACCAAGGTGAATAGCTCGTTGATGAGTAGGCG .
Marked response: -0.0388

Exam item: Specify measured PBM binding z-score for CTCGAAAGGTCGGTTGAGGTGAGGATACGGATAA .
Marked response: 0.312

Exam item: Specify measured PBM binding z-score for AGAATGAGGTTATGATCAGGGAAACAGAATACAT .
Marked response: 1.68

Exam item: Specify measured PBM binding z-score for ATCGAAAGGTCGAAGGTGAGTATACCCACCCGAA .
Marked response: 0.373

Exam item: Specify measured PBM binding z-score for CCGAGTAGGTTATGGGGCCTTCAGGCAACGGTGA .
Marked response: -0.856

Exam item: Specify measured PBM binding z-score for CGAACTAGGCCATCCAGGACAGTGAATACATTGA .
Marked response: 0.953

Exam item: Specify measured PBM binding z-score for CCTGCTAGGTCAATGCTCAGCTAAAGCAGCTCGC .
Marked response: 0.0583

Exam item: Specify measured PBM binding z-score for TCTCGGACGACACGAAAGGTCAGAGCTCGACATC .
Marked response: -0.234

Exam item: Specify measured PBM binding z-score for ATCTCTAGGTAACAAGTTCACTGAAAGAGAGGAC .
Marked response: 1.22

Exam item: Specify measured PBM binding z-score for CGAACTAGGTCAAGGACATTGAATCTCCGCACGC .
Marked response: 1.49

Exam item: Specify measured PBM binding z-score for CGAACTAGGTCAGGACAGGACAGTGAAGGATGAT .
Marked response: 1.64

Exam item: Specify measured PBM binding z-score for CGAACGAGGGCATGAGTTGATTGCAAATGCCGAT .
Marked response: -0.365

Values compiled from the supplement of paper PMC6555819.
